Data credit: paper PMC12147176

molecular target: His6-p37AUF1 W250F (human, UniProt Q14103-4 1-287, W250F); experiment: fluorescence anisotropy; Anisotropy: 10 mM Tris-HCl pH 8.0, 100 mM KCl (50 mM for Fl-ARE2), 0.5 mM EDTA, 0.1 ug/ul acetylated BSA, 1 ug/ul heparin, 2 mM DTT, 25 C, RNA 0.2-0.4 nM; EMSA: same with 100 mM KCl, 10% glycerol, 1 nM RNA, on ice, UV crosslinked; settings: protein: recombinant; tags: N-term His6; chain copies: 2; label: 3' fluorescein
Sequence (Q14103 other isoform, or with tags, fused parts or gaps W250F | W250F W250F): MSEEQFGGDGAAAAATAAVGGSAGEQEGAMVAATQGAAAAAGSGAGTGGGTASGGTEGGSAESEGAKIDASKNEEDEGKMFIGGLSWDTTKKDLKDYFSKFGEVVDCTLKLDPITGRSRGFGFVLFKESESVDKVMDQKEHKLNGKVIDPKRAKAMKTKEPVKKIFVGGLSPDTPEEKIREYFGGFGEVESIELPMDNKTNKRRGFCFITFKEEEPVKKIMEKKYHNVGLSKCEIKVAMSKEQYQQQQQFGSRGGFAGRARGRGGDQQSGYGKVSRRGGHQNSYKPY
measurement label: pKd
Give bare numbers, as −log10 of the molar value.

Reported pKd of CCCCUGGCUCACAAAUACCUUAUUUAUUUAUUUAG (ssRNA) [ARE1-Fl] : 7.66
